Source listed as paper PMC12416549.

- Measurement target: T1, TNFR1 (Homo sapiens, UniProt P19438)
- T1 chain: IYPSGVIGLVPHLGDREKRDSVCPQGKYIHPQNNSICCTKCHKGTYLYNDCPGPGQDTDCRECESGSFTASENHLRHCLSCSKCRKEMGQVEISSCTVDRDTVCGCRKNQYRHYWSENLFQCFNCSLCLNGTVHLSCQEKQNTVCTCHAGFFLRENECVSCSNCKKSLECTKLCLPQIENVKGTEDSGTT
- Protocol description: yeast display SC50
Some binders, each annotated with its measured apparent Kd (screen).
Measure: apparent Kd (screen) (pM)

{"Binder": "E99W (designed binder) MTLQELLREEALRRAEAEAFRYALELLAEKFPEQKEYLLDLAEEIESQIRSLSGVDVEDVRKFLDKEWAWVKELLAEHPAELAEVEAARAARLAELRAWVEAKVAA", "Recorded number": 593}
{"Binder": "L7V (designed binder) MTLQELVREEALRRAEAEAFRYALELLAEKFPEQKEYLLDLAEEIESQIRSLSGVDVEDVRKFLDKEWAWVKELLAEHPAELAEVEAARAARLAELRAEVEAKVAA", "Recorded number": 2250}
{"Binder": "A80Y (designed binder) MTLQELLREEALRRAEAEAFRYALELLAEKFPEQKEYLLDLAEEIESQIRSLSGVDVEDVRKFLDKEWAWVKELLAEHPYELAEVEAARAARLAELRAEVEAKVAA", "Recorded number": 593}
{"Binder": "E5H (designed binder) MTLQHLLREEALRRAEAEAFRYALELLAEKFPEQKEYLLDLAEEIESQIRSLSGVDVEDVRKFLDKEWAWVKELLAEHPAELAEVEAARAARLAELRAEVEAKVAA", "Recorded number": 490}
